Record form. Attribute: IC50. Fill in for each entry.
Tested on: P. falciparum 3D7 growth, pLDH absorbance
experiment_description: blood-stage malaria parasite growth potency – strain 3D7, dose response (AID 2305)
The reply should consist of the numeric value with the unit placed after it.

What does the data say about its IC50? Entry: "CC(C)(C)c1ccc(CN2CCC(NC(=O)c3ccc(-c4ccccc4Cl)s3)CC2)cc1"
1.35 µM

Another compound to look at: "CCS(=O)(=O)N1CCN(c2nc(-c3ccccc3)nc(COC)c2Cc2ccccc2F)CC1"
1.45 µM

Another compound to look at: "FC(F)(F)c1ccc2nc(-c3ccc(-c4cccc(CNCc5cnn(-c6ccccc6)n5)c4)s3)[nH]c2c1"
0.33 µM

Another compound to look at: "COc1cc2c(c(OC)c1OC)C[C@H]1c3c(cc4c(c3-2)OCO4)CCN1C"
0.97 µM

Another compound to look at: "CCOc1ccc2c(NN=Cc3ccccc3F)cc(C)nc2c1"
0.68 µM

Another compound to look at: "Cc1ccc(NC(=O)c2ccc(NCCCN(C)Cc3ccccc3)c([N+](=O)[O-])c2)cc1F"
0.7 µM

Another compound to look at: "Clc1cc(Nc2ncnc3sc(C#Cc4ncc[nH]4)cc23)ccc1OCc1ccccn1"
1.11 µM

Another compound to look at: "CN(C)C(=O)O[C@@H]1CN[C@H](C#Cc2cc3ncnc(Nc4ccc5c(cnn5Cc5cccc(F)c5)c4)c3s2)C1"
0.76 µM

Another compound to look at: CCOC(=O)C1=C(C)N=c2sc(=Cc3ccccc3O)c(=O)n2C1c1ccc(OC)c2ccccc12 (centres undefined)
1.26 µM

Another compound to look at: "COc1cccc(C(=O)NCCOc2ccccc2)c1Oc1ccccc1"
0.92 µM

Another compound to look at: "CC(C)(C)c1ccc2nc(-c3ccc(C(=O)NCCCc4ccccc4)cc3)[nH]c2c1"
0.8 µM

Another compound to look at: CCCCCCNC(=O)C1Cc2c([nH]c3ccc(C)cc23)C2(CCN(Cc3ccccc3)CC2)N1 (centres undefined)
0.98 µM

Another compound to look at: "Cc1nnsc1C(=O)Nc1cccc(-c2cccc(-c3nc4ccc(C(F)(F)F)cc4[nH]3)c2)c1"
0.24 µM

Another compound to look at: "COc1ccc(O)c(C(=O)NCCc2ccc(OC)c(-c3ccc(C(C)(C)C)cc3)c2)c1"
1.03 µM

Another compound to look at: "Cc1cc(NC(=O)c2ccco2)ccc1OC1CCN(Cc2ccc(C#N)cc2)CC1"
0.5 µM

Another compound to look at: "CCCN1CCN(c2ccc(NS(=O)(=O)c3ccc(C(=O)Nc4ccc(Cl)cc4)cc3)cc2)CC1"
1.11 µM

Another compound to look at: "O=C(Nc1ccc(-c2cccc(-c3nc4ccccc4[nH]3)c2)cc1)c1cnn2cccnc12"
0.6 µM

Another compound to look at: CC(CN(C)C)C(=O)Nc1ccc(-c2cccc(-c3nc4ccccc4[nH]3)c2)cc1 (centres undefined)
0.72 µM

Another compound to look at: COc1ccc(C(=O)Nc2cc(Cl)c3c(c2)C2CCCN2CC3)cc1C(F)(F)F (centres undefined)
0.75 µM

---

Test system: P. falciparum 3D7 growth, pLDH absorbance
experiment_description: blood-stage malaria parasite growth potency – strain 3D7, dose response (AID 2305)
Record form. Attribute: pIC50. Fill in for each entry.
pIC50 is a log-scale quantity: -log10 of the concentration expressed in molar.

What does the data say about its pIC50? Entry: "CCC(CC)(Cc1ccccc1)NC(=O)[C@H](CC1CCCCC1)Nc1ccc(C#N)c2ccccc12"
6.20

Another molecule to look at: "CCN1CCN(c2cc(C)c3cc(NC(=O)c4cccc(OC)c4)ccc3n2)CC1"
6.10

Another molecule to look at: "COc1cc(N(Cc2ccccc2C)S(=O)(=O)Cc2ccccc2[N+](=O)[O-])c(OC)cc1Cl"
6.00

Another molecule to look at: "CC(C)Oc1ccc2ccccc2c1CNCCCCCCNCc1c(OC(C)C)ccc2ccccc12"
6.21

Another molecule to look at: O=C1NC(c2ccc(N3CCCCCC3)cc2)Nc2ccccc21 (configuration not stated)
6.24

Another molecule to look at: "CCCCc1ccc(C(=O)NC2CCN(C[C@H](O)c3ccnc4ccc(OC)cc34)CC2)cc1"
6.14

Another molecule to look at: Cc1cc(=O)oc2c1ccc1oc(C(O)c3ccc(Cl)cc3)c(C)c12 (configuration not stated)
6.89

Another molecule to look at: N#Cc1ccc(NC(=O)c2ccc(C(=O)NCCCCN3CCC(c4ccc5c(c4OCCOC4CCCCO4)CCCC5)CC3)cc2)cc1 (configuration not stated)
6.24

Another molecule to look at: "O=S(=O)(Nc1cccc(CCN2CCC(N3CCCCC3)CC2)c1)c1cccc2cccnc12"
6.07

Another molecule to look at: "Fc1cccc2sc(Nc3nc(-c4ccccn4)cs3)nc12"
6.04

Another molecule to look at: "CCC(CC)(CCC#N)CN(C[C@@H](O)[C@H](Cc1ccccc1)NC(=O)OC(C)(C)C)S(=O)(=O)c1ccc(OC)cc1"
5.98

Another molecule to look at: "COc1ccc2nccc([C@@H](O)CN3CCC(NC(=O)/C=C/c4cccc(C)c4)CC3)c2c1"
5.90

Another molecule to look at: O=C(NC1CCN(c2ccnc3cc(Cl)ccc23)C1)c1ccc(C(F)(F)F)cc1 (configuration not stated)
6.85

Another molecule to look at: "Cc1cc2[nH]c(-c3ccc(C(=O)NCCCN4CCN(c5cccc(Cl)c5)CC4)cc3F)nc2cc1Cl"
6.32

Another molecule to look at: "CCOc1cc(C(=O)NCC2CCN(CC3CCCCC3)CC2)ccc1-c1nc2ccc(Cl)cc2[nH]1"
6.25

Another molecule to look at: Cc1[nH]c2ccccc2c1C(=O)C(C)Sc1n[nH]c(-c2ccccc2Br)n1 (configuration not stated)
7.52

Another molecule to look at: "Cc1noc(C)c1-c1ccc(C(=C2CCCCCC2)c2ccc(O)cc2)cc1"
6.72

Another molecule to look at: "CC(=O)Oc1c(C2CCN(CCCCNC(=O)c3ccc(-c4ccc(C#N)cc4)cc3)CC2)ccc2c1CCCC2"
5.95

Another molecule to look at: CC(Oc1ccc(C(=O)c2ccc(F)cc2)cc1)C(=O)N1CCc2ccccc21 (configuration not stated)
6.39

Another molecule to look at: "CCOC(=O)c1c(CSc2ccccc2)oc2cc(CN(C)C)c(O)c(Cl)c12"
6.18

Another molecule to look at: "N#Cc1cccc(NC(=O)Nc2cccc(-c3cccc(-c4nc5ccc(C(F)(F)F)cc5[nH]4)c3)c2)c1"
6.66

Another molecule to look at: "Cc1nc2ccc3ccc(CNc4ccc(C(=O)N[C@@H](CCC(=O)O)C(=O)N[C@@H](Cc5cccs5)C(=O)O)c(F)c4)cc3c2c(=O)[nH]1"
6.10

Another molecule to look at: "Cc1cc(N[C@@H](Cc2ccccc2)C(=O)NCCCOC(C)C)nc(NCCc2ccc(F)cc2)n1"
6.03

Another molecule to look at: "Cc1ccoc1C(=O)Nc1cccc(-c2cccc(-c3nc4ccccc4[nH]3)c2)c1"
5.91

Another molecule to look at: "COc1cc(C)nc2ccc(NC(=O)Nc3ccccc3[N+](=O)[O-])cc12"
6.08

Another molecule to look at: COc1cc(CC(C)NCC(O)c2cccc(C(F)(F)F)c2)ccc1OCc1ccccc1 (configuration not stated)
6.09

Another molecule to look at: "Cc1cc(N[C@@H](Cc2ccccc2)C(=O)NCc2cccc(F)c2)nc(NCc2ccccc2C)n1"
6.01

Another molecule to look at: CO/C(=C\C=C\c1cc2cc(Cl)c(Cl)cc2[nH]1)C(=O)NC1C[C@H]2CCC[C@@H](C1)N2C (some centres not stated)
6.00

Another molecule to look at: "COc1ccc(Cl)cc1N1CCN(CCCNC(=O)c2ccc(-c3nc4ccncc4[nH]3)c(Br)c2)CC1"
5.94

Another molecule to look at: "COc1ccc2c(c1C1CCN(CCCCNC(=O)c3ccc(NC(=O)c4ccc(Cl)cc4)cc3)CC1)CCCC2"
6.47

Another molecule to look at: "CCN(C1CCCCC1)S(=O)(=O)c1ccc(OC)c(N2CCN(C(=O)C(Cl)(Cl)Cl)CC2)c1"
6.20

Another molecule to look at: "Cc1ccc(NC(=O)c2cc(Br)cc(N3CCCN(C)CC3)c2)cc1F"
5.87

Another molecule to look at: "CCOC(=O)CCCCCNC[C@H](O)c1ccccc1"
6.48

Another molecule to look at: "CCc1nc2nc(C)cc(Nc3ccc(F)c(Cl)c3)n2n1"
6.01

Another molecule to look at: "CCOc1cc(C(=O)NCCCN2CCN(c3cccc(Cl)c3)CC2)ccc1-c1nc2cc(Cl)c(F)cc2[nH]1"
6.06

Another molecule to look at: "CC[C@H]1CN2CC[C@H]1C[C@@H]2[C@H](O)c1ccnc2ccc(O)cc12"
5.98

Another molecule to look at: "COc1ccc(NC(=O)/C=C/c2ccccc2Cl)cc1OCCN1CCC(NCc2cccnc2)CC1"
6.12
